Here the recorded apparent KD of MS2 coat protein is given for each entry.
Tested on: MS2 coat protein
Assay: apparent KD of MS2 coat protein, switch ON state; designed switch direction (-1 OFF switch, 1 ON switch): 1; higher = weaker reporter binding
Conditions: FMN input: 0 or 200 uM; Eterna round: R93 (includes R88 designs)
Report only the number, with the unit µM understood.

INSERT INTO measurements (sequence_data, experimental_system, property, measured_result) VALUES
  ('CAGAGACAUGAGGAUCACCCAUGUAGGAUUAUGGGAGGAUAUACAAAGACGAGAGUCAGAGUAGAAGGCCUAGGAC [salish99-ss1-144]', 'MS2 coat protein', 'apparent KD of MS2 coat protein', 0.0208),
  ('CGGAAGGAGAGAGAGGAUAUCCAAAGGAAAACAUGAGGAUCACCCAUGUAGAAGGUAGGAAAUUGGGAGAAGGCUCAAGAGAGAG [salish99-ss2-119(!)]', 'MS2 coat protein', 'apparent KD of MS2 coat protein', 0.0374);

Using known records, supply apparent KD of MS2 coat protein for UUUAAUUGCGGGCAGGAUAUGUAUUAAAAUACAUGAGGAUCACCCAUGUGCGGGUGUAACACCCGACAGAAGGGCCAAUCGCGAC [Bearisan]
0.0647

Using known records, supply apparent KD of MS2 coat protein for AAAAAACAAAGAGAGGAUAUCCUGAAAAAAACAUGAGGAUCACCCAUGUAAAGAAAUUUAAAAUGGGAGAAGGCUCUUUGAAAAA [Same State 2.6c ( Helter Skelter 1)]
0.0246

Using known records, supply apparent KD of MS2 coat protein for AAAAAACAUGAGGAUCACCCAUGUAAUACAACAUCAGGAUAUUGGCUUGACUAUGUCUUACAAGAAGGGAUGAAAA [Same State 1.3d (Same State 1 - Omei 2 )]
0.0305

Using known records, supply apparent KD of MS2 coat protein for AUAAAACAUGAGGAUCACCCAUGUAGAAAUAUGGGAGGAUAUACGAAGACGAAAGUCAAAGUAGAAGGCCUAAAAG [Mat - Same State 1 - Meechl mod - D115]
0.0265

Using known records, supply apparent KD of MS2 coat protein for AGGAGACAUGAGGAUCACCCAUGUGAGAAGAGGCGAGGAUAUCGAAAGAAAGAAGAGAAACGAGAAGGCGCGAGGA [salish99-SS1-019]
0.0298

Using known records, supply apparent KD of MS2 coat protein for UACAGACAUGAGGAUCACCCAUGUAGAAUUAUGGGAGGAUAUACAAAGACGAGAGUCAGAGUAGAAGGCCUAGGAG [salish99-ss1-165]
0.0253

* * *

Tested on: MS2 coat protein
Experiment: apparent KD of MS2 coat protein; higher = weaker reporter binding
Conditions: Eterna round: R107; input ligand: arginine 13.2 mM
Here the recorded apparent KD of MS2 coat protein is given for each entry.

Look over these answered cases.
INSERT INTO assay_data (sequence_data, measured_result) VALUES
  ('AGCACACAUCCUGAUACCAGAGACAUGAGGAUCACCCAUGUCCGAUCGUCCUGCCUCAGACUCCCUUGGCAGCAGGAUGUGUGCU [Exclusion Theophylline B GF7]', '12.5 nM'),
  ('GGAUGCGGCACGGCCGCCACUGCGGUGGUGUGACAUGAGGAUCACCCAUGUUGUCAUGCGGCCCUUAGGACCGGGUGGCGUGUCC [#1 Exclusion - Tryptophan B Attempt #19 (HarryS)]', '37.2 nM'),
  ('AAGAUACUCUGAAGGAGCGUCAUAAAACAUGAGGAUCACCCAUGUGCGCGGGUGUAAUUAUGACAGGUAGGUCGCAGAGUAUUUA [Arg B SS t2]', '424 nM'),
  ('ACAUGAGGAUCACCCAUGUGAAGCAGGGUACGAGGACCGGUACGGCCGCCACUCGAGCAUUAUACCGAGUGAAUGGCAACGAUGU [whbob_Ex_trypto A_2s17]', '14.4 nM'),
  ('CGCCGCGGGAGAAGGAGCGCGAUAACAUAACAUGAGGAUCACCCAUGUAAGAAAUUAAUCAUGCAGGUAGGUCGCUCCCGCGGCG [Same State Arginine B GF 4]', '16.3 nM');

Now examine the next entry.
Using known records, supply apparent KD of MS2 coat protein for CCUGAUAACUGAAGGAGCGAGAAACCCUACAUGAGGAUCACCCAUGUAUACACGGGAACUUCUCAGGUAGGUCGCAGUAUGUCGG [Rienat]
71.2 nM
